# experiment.summary: Compound 1 PK dosed Days 1-5 with topotecan
# Assay type: in vivo, human
# measurement.parameters: human, plasma, intravenous, 200 mg/m^2 with Topotecan […]^2 (Cohort 1), Day 1, Geo. Mean; read-out: Cmax
metric.name: Cmax (ng/mL)
One number for each entry, in ng/mL.

*Q* Quickly give me recorded Cmax for CN1CCN(c2ccc(Nc3ncc4cc5n(c4n3)C3(CCCCC3)CNC5=O)nc2)CC1
*A* 932

###

# experiment.summary: Compound 1 PK dosed Days 1-3 with etoposide and carboplatin
# Type: in vivo, human
# measurement.parameters: human, plasma, intravenous, 200 mg/m2, 200 mg/m^2 with Etoposide and Carboplatin, Day 1, individual subjects; read-out: AUC24.5
metric.name: AUC

*Q* Quickly give me recorded AUC for CN1CCN(c2ccc(Nc3ncc4cc5n(c4n3)C3(CCCCC3)CNC5=O)nc2)CC1
*A* 2860 ng·h/mL
